Some binders, each annotated with its measured Kd.
# study_target: feline FcRn complex (FcRn-α subunit and β-microglobulin), biotin labeled (feline)
# test_details: SPR, pH 7.4

- binder: "feline IgG1a S254C (antibody, part only; not given: Variable domains, not shown: another chain or arm of the molecule) constant: ASTTAPSVFPLAPSCGTTSGATVALACLVLGYFPEPVTVSWNSGALTSGVHTFPAVLQASGLYSLSSMVTVPSSRWLSDTFTCNVAHPPSNTKVDKTVRKTDHPPGPKPCDCPKCPPPEMLGGPSIFIFPPKPKDTLSICRTPEVTCLVVDLGPDDSDVQITWFVDNTQVYTAKTSPREEQFNSTYRVVSVLPILHQDWLKGKEFKCKVNSKSLPSPIERTISKAKGQPHEPQVYVLPPAQEELSRNKVSVTCLIKSFHPPDIAVEWEITGQPEPENNYRTTPPQLDSDGTYFVYSKLSVDRSHWQRGNTYTCSVSHEALHSHHTQKSLTQSPGK"
  unit: "nM"
  Kd: 2160
- binder: "feline IgG1a S428Y/L314K/S434Y (antibody, part only; not given: Variable domains, not shown: another chain or arm of the molecule) constant: ASTTAPSVFPLAPSCGTTSGATVALACLVLGYFPEPVTVSWNSGALTSGVHTFPAVLQASGLYSLSSMVTVPSSRWLSDTFTCNVAHPPSNTKVDKTVRKTDHPPGPKPCDCPKCPPPEMLGGPSIFIFPPKPKDTLSISRTPEVTCLVVDLGPDDSDVQITWFVDNTQVYTAKTSPREEQFNSTYRVVSVLPILHQDWKKGKEFKCKVNSKSLPSPIERTISKAKGQPHEPQVYVLPPAQEELSRNKVSVTCLIKSFHPPDIAVEWEITGQPEPENNYRTTPPQLDSDGTYFVYSKLSVDRSHWQRGNTYTCSVYHEALHYHHTQKSLTQSPGK"
  unit: "nM"
  Kd: 17.2
